- target-entity: BsCspB (cold shock protein B) (UniProt P32081 1-67)
- Sequence (P32081 whole entry): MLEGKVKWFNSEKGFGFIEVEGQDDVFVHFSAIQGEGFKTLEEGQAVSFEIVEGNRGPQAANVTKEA
- assay-notes: intrinsic Trp fluorescence quenching; 200 g/L Dex20 (series b); 20 mM disodium phosphate pH 7.0, no added salt stated; fluorescence titration 298 K (0.5, 2.8 or 4 uM protein; table marks a/b not explained in the material); stopped-flow 288 K (60 or 300 nM protein); NMR 298 or 294.4 K with 5% D2O
- settings: protein: recombinant; single strand
measured-attribute: Kd (µM)
Just the number please, in µM, no unit attached.

Input line: Given TTTTT (ssDNA) [dT5] , respond with its Kd.
Output line: 0.68
